assay: Dantrolene sodium solubility in water only solutions of HPBCD (visual inspection); format: physicochemical; details: aqueous with cosolvent or surfactant or cyclodextrin, hemiheptahydrate equivalent; 9 Mol equivalents of HPBCD, HP7 variant; purified water; read-out: Solubility of dantrolene sodium
reported-metric: solubility (µg/mL)
Expressed in µg/mL, but write only the number.

Input line: Entry O=C1CN(/N=C/c2ccc(-c3ccc([N+](=O)[O-])cc3)o2)C([O-])=N1.[Na+] [DNa, dantrolene sodium] has what solubility?
Output line: 8500
